The reported numbers originate from paper PMC12287680.

# Assay Notes: Half-lives in human saliva at 37°C
# Type: in vitro ADME
# Condition Notes: fresh resting whole human saliva, mean of three measurements with fresh samples of three individuals, 5·10^−5 M, read-out: Half‐lives t 1/2 at 37°C in human Saliva
# half-life at 50 µM annotations

{"Molecule": "CCCC(=O)OCOc1cccc2[nH]cc(CCN(C)CC)c12", "half-life at 50 µM": "< 10 min"}
{"Molecule": "CCCC(=O)OCOc1cccc2[nH]cc(CCN(C)C)c12", "half-life at 50 µM": "< 10 min"}
{"Molecule": "CC(=O)Oc1ccccc1C(=O)O [ASA, Acetylsalicylic acid, reference compound]", "half-life at 50 µM": "> 60 min"}
{"Molecule": "CN(C)CCc1c[nH]c2cccc(OCOC(=O)C(C)(C)C)c12", "half-life at 50 µM": "< 20 min"}
{"Molecule": "CCN(C)CCc1c[nH]c2cccc(OCOC(=O)C(C)(C)C)c12", "half-life at 50 µM": "< 20 min"}
